Entry source: patent US8022225B2

molecular target: human Edg-1(S1P1) (Homo sapiens, UniProt P21453); construct: expressed in transfected cells; host or cells: HEK-293; assay: Membrane system binding test: inhibition of [33P]-S1P binding to the membrane fraction of Edg-1(S1P1) gene transferred HEK-293 cells; conditions: 10 μM compound; [33P]-S1P 0.1 nM; membrane fraction of Edg-1(S1P1) gene transferred HEK-293 cells; read-out: Membrane system binding test % inhibition (10 μM)
Sequence (P21453 whole entry): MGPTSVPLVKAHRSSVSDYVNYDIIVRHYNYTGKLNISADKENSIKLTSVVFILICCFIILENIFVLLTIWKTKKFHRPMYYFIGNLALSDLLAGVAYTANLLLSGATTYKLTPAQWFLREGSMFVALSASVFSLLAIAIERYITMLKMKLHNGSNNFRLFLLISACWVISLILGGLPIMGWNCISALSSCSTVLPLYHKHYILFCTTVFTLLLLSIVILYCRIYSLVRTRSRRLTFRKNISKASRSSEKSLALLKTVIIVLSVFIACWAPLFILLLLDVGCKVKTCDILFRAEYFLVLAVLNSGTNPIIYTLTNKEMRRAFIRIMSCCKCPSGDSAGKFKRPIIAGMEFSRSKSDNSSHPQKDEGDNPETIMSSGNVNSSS
measure name: inhibition at 10 µM (%)
Write the value in % as a bare number.

- compound: "CCn1c(SCc2ccc(C)cc2)nnc1[C@@H](C)NS(=O)(=O)c1ccc(Cl)cc1"
  measure name: "inhibition at 10 µM"
  endpoint unit: "%"
  assay result: 96.9
- compound: "CCn1c(SC2CCc3ccccc32)nnc1[C@@H](C)NS(=O)(=O)c1ccc(Cl)cc1 (stereo partly shown)"
  measure name: "inhibition at 10 µM"
  endpoint unit: "%"
  assay result: 93
- compound: "CCn1c(OC)nnc1[C@@H](C)NS(=O)(=O)C(C)C"
  measure name: "inhibition at 10 µM"
  endpoint unit: "%"
  assay result: 54.5
- compound: "CCCCCc1ccc(S(=O)(=O)N[C@H](C)c2nnc(OC)n2CC)cc1"
  measure name: "inhibition at 10 µM"
  endpoint unit: "%"
  assay result: 41.5
- compound: "CCn1c(SCC2CCCN(C)C2)nnc1[C@@H](C)NS(=O)(=O)c1ccc(Cl)cc1 (stereo partly shown)"
  measure name: "inhibition at 10 µM"
  endpoint unit: "%"
  assay result: 83.1
- compound: "CCn1c(OC)nnc1[C@@H](C)NS(=O)(=O)c1sc2ccc(Cl)cc2c1C"
  measure name: "inhibition at 10 µM"
  endpoint unit: "%"
  assay result: 59.3
- compound: "CCOc1nnc([C@@H](C)NS(=O)(=O)c2ccc(Br)c(F)c2)n1CC"
  measure name: "inhibition at 10 µM"
  endpoint unit: "%"
  assay result: 88.2
- compound: "CCn1c(OC)nnc1[C@@H](C)NS(=O)(=O)c1cc(C)sc1C"
  measure name: "inhibition at 10 µM"
  endpoint unit: "%"
  assay result: 41.8
- compound: "CCn1c(OC)nnc1[C@@H](C)NS(=O)(=O)c1ccccc1"
  measure name: "inhibition at 10 µM"
  endpoint unit: "%"
  assay result: 57.3
- compound: "CCOc1nnc([C@@H](C)NS(=O)(=O)c2cc(Cl)c(Cl)s2)n1CC"
  measure name: "inhibition at 10 µM"
  endpoint unit: "%"
  assay result: 90.5

// map "CCn1c(SCCC(C)(C)C)nnc1[C@@H](C)NS(=O)(=O)c1ccc(Cl)cc1" to recorded inhibition at 10 µM (system: human Edg-1(S1P1) (Homo sapiens, UniProt P21453))
97.1

// map "CCCCSc1nnc([C@@H](C)NS(=O)(=O)c2ccc(Cl)cc2)n1CC" to recorded inhibition at 10 µM (system: human Edg-1(S1P1) (Homo sapiens, UniProt P21453))
95.9

// map "CCn1c(SCc2cccc(C)c2)nnc1[C@@H](C)NS(=O)(=O)c1ccc(Cl)cc1" to recorded inhibition at 10 µM (system: human Edg-1(S1P1) (Homo sapiens, UniProt P21453))
96.9

// map "CCn1c(OC(C)C)nnc1[C@@H](C)NS(=O)(=O)c1ccc(Cl)cc1" to recorded inhibition at 10 µM (system: human Edg-1(S1P1) (Homo sapiens, UniProt P21453))
93.4

// map "CCn1c(SCCS(=O)(=O)c2ccccc2)nnc1[C@@H](C)NS(=O)(=O)c1ccc(Cl)cc1" to recorded inhibition at 10 µM (system: human Edg-1(S1P1) (Homo sapiens, UniProt P21453))
87.5

// map "CCn1c(OC)nnc1[C@@H](C)NS(=O)(=O)c1cc(Cl)cc(Cl)c1" to recorded inhibition at 10 µM (system: human Edg-1(S1P1) (Homo sapiens, UniProt P21453))
83
